B1: C1orf137 (parent)
chain: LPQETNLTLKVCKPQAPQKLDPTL

# Variants of: B1
# experimentSummary: protein stability index of a GFP-peptide fusion (GPS, HEK-293T) (PSI 1-6); higher = more stable;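 also: lentivirally expressed fusions sorted by FACS into six bins by GFP to DsRed ratio, PSI derived from sequencing read proportions per bin multiplied by bin number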
# measurementContext: c terminus: a fixed tail appended
Entry flag: fulfilled if protein stability index reaches 4; not fulfilled if it does not.

Some entries whose results are on file:
[
  {
    "mutationId": "L7Q",
    "answerLabel": "fulfilled"
  },
  {
    "mutationId": "N6H",
    "answerLabel": "fulfilled"
  },
  {
    "mutationId": "P22R",
    "answerLabel": "not fulfilled"
  },
  {
    "mutationId": "K19S",
    "answerLabel": "not fulfilled"
  }
]

Would you say K13F shows protein stability index at minimum 4? not fulfilled

Determine whether measured protein stability index meets or exceeds 4 for C12T fulfilled

Does protein stability index meet or surpass 4 for V11T ? not fulfilled

Has K13L a recorded protein stability index greater than or equal to 4? not fulfilled

In plain terms: is recorded protein stability index at least 4 for L1D ? fulfilled
